- Test system: SEM cells
- Protocol Description: cell viability relative to DMSO control; higher = less cytotoxic
- Measurement Setup: RPMI 5 mM glucose + 10% FBS; 48 h; 5.12 µM
Measured Attribute: cell viability

>>> meas_value("CCC1=C2C=C(OC(=O)N3CCC(CC3)N4CCCCC4)C=CC2=NC\\5=C1CN6C(=O)\\C7=C(/C=C56)[C@@](O)(CC)C(=O)OC7")
"15.4%"
>>> meas_value("O=C1[O][Pt]2([NH]C3CCCCC3[NH]2)[O]C1=O (stereo not given)")
"15%"
>>> meas_value("COc1ccc(Cn2ccc3ccc(C(=O)NO)cc32)cc1")
"109%"
>>> meas_value("CCCCOc1ccc(C(=O)Nc2ccc(F)cc2F)cc1")
"88.4%"

// cell viability value for "COc1cc2nc(-c3ccc(N4CCN(C)CC4)cc3)nc(NCCN3CCOCC3)c2cc1OC" : 7.04%

###

- Tested on: NOMO1
- Protocol Description: cell viability relative to DMSO control; higher = less cytotoxic
- Measurement Setup: RPMI 5 mM glucose + 10% FBS; 48 h; 5.12 µM
Measured Attribute: cell viability
Give your result as the value with the unit written after it.

Items follow; give cell viability for each.
1. COc1cc(N2CCC(N3CCN(C)CC3)CC2)ccc1Nc1ncnc(Nc2ccccc2[S+](=O)([O-])C(C)C)n1
2. CC(C)(O)CNc1nc(Nc2ccnc(C(F)(F)F)c2)nc(-c2cccc(C(F)(F)F)n2)n1
3. CCCCOc1ccc(C(=O)Nc2ccc(F)cc2F)cc1
4. CN(C)CCC=C1C2=C(C=CC=C2)\C=C/C3=C1C=CC=C3
5. C[C@H]([C@H]1C\C(=C(CO)/C(=O)O1)C)[C@H]2CC[C@H]3[C@@H]4C[C@H]5O[C@]56[C@@H](O)\C=C/C(=O)[C@]6(C)[C@H]4CC[C@]23C
6. COc1cc(/C=C/C(=O)CC(=O)/C=C/c2ccc(O)c(OC)c2)ccc1O
7. CC1(C)CC(=O)c2c(C(F)(F)F)nn(-c3ccc(C(N)=O)c(NC4CCC(OC(=O)CN)CC4)c3)c2C1 (configuration not stated)

110%
43.7%
92.9%
94%
9.85%
102%
9.75%

Items follow; give cell viability for each.
1. CC1(C)O[C@H]2CC(=O)OC[C@]23[C@H]2CC[C@@]4(C)[C@H](c5ccoc5)OC(=O)[C@H]5O[C@]54[C@]2(C)C(=O)C[C@@H]13
2. CCc1cc(/C(C)=N/OCc2ccc(C3CCCCC3)c(C(F)(F)F)c2)ccc1CN1CC(C(=O)O)C1
3. Cl.Cl.Fc1ccc(C(OCCN2CCN(CCCc3ccccc3)CC2)c2ccc(F)cc2)cc1

["98.4%", "107%", "108%"]

Items follow; give cell viability for each.
1. CC1=C(/C=C/C(C)=C/C=C/C(C)=C/C(=O)Nc2ccc(O)cc2)C(C)(C)CCC1
2. CC(C)[C@@H](N(CCCN)C(=O)C1=CC=C(C)C=C1)C/2=C(\CC3=CC=CC=C3)C(=O)C4=C(O2)C=C(Cl)C=C4
3. COc1ccc(-c2c(-c3ccc(O)cc3O)n[nH]c2C)cc1
4. O=C(Oc1ccc([N+](=O)[O-])cc1)N1CCN(Cc2cccc(Oc3ccccc3)c2)CC1
5. CC1=C(C)C2=C(S1)[N]3C(=NN=C3[C@H](CC(=O)OC(C)(C)C)/N=C2/C4=CC=C(Cl)C=C4)C

["63%", "27.2%", "106%", "110%", "12.1%"]

Items follow; give cell viability for each.
1. COc1ccc(-c2nc3cc(C4=NNC(=O)CC4C)ccc3[nH]2)cc1 (configuration not stated)
2. CC1=CC2=C(O1)C(=C3OC(=O)\C=C(C)/C3=C2)C

102%
113%
